All figures here come from paper PMC12217109.

Listing: log10(IC50) of selected molecules
tested on: KM12; experiment: NCI-60 cytotoxicity screen; assay type: cell-based; conditions: Homo sapiens, NCI-60, 48 h, colon
Hey, these are logged values: log10 of IC50, nM being the unit before logging.

Solved cases (5 shown):
molecule="C=C(CN1CCN(c2cccc(C(F)(F)F)n2)CC1)c1ccc(C(=O)Nc2ccccc2N)cc1 [Compound 7]" measurement_target=KM12 data_value=2.83
molecule="C=C(CN1CCN(c2cccc(C(F)(F)F)c2)CC1)c1ccc(C(=O)Nc2ccccc2N)cc1 [Compound 4]" measurement_target=KM12 data_value=2.69
molecule="Nc1ccccc1NC(=O)c1ccc(CNC(=O)OCc2cccnc2)cc1 [Compound 1, Entinostat, reference compound]" measurement_target=KM12 data_value=3.63
molecule="C=C(CN1CCN(c2ccccc2C(F)(F)F)CC1)c1ccc(C(=O)Nc2ccccc2N)cc1 [Compound 3]" measurement_target=KM12 data_value=3.31
molecule="C=C(CN1CCN(c2ccccn2)CC1)c1ccc(C(=O)Nc2ccccc2N)cc1 [Compound 6]" measurement_target=KM12 data_value=2.97

# input for lookup
log10(IC50) for C=C(CN1CCN(c2ccc(C(F)(F)F)cc2)CC1)c1ccc(C(=O)Nc2ccccc2N)cc1 [Compound 5] ?
3.88
